test_system: beta-catenin/TCF4 engagement (Homo sapiens, UniProt P35222)
Construct: expressed in transfected cells; host or cells: HEK293
Sequence (P35222 1-781): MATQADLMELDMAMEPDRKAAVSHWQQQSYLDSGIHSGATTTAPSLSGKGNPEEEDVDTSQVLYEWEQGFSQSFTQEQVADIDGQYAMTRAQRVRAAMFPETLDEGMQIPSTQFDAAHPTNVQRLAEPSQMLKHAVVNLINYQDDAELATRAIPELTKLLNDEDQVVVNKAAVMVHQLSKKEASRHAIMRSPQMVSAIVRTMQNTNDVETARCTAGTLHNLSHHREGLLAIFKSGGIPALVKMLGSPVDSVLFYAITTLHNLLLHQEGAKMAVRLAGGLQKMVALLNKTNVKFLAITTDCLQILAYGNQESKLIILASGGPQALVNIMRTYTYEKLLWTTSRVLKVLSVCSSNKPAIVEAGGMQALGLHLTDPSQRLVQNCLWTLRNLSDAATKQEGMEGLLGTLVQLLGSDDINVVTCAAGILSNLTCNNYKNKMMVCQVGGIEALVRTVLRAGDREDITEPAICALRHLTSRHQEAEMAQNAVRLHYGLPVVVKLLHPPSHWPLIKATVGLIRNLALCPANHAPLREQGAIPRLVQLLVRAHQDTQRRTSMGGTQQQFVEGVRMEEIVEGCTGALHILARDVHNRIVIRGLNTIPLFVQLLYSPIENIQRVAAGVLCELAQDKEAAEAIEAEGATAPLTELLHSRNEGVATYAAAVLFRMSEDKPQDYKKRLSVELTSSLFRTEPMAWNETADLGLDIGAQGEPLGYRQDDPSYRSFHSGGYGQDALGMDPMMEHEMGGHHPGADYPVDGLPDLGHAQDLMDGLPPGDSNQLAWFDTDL
assay_explanation: Nano-BRET target engagement assay (B-cat-Halo & TCF4-Luc in HEK293 cells)
Type: cell-based
experimental_parameters: absolute IC50; read-out: NanoBRET Abs IC50
assay_metric: IC50

The cases that follow already have their IC50 on record.
input: Please look up its IC50: CC(=O)N1CCC[C@]12CC=CCCCC1(CCCC=CCCCOC(=O)N3CC[C@@](C(=O)N[C@@H](Cc4ccccc4C(F)(F)F)C(=O)N[C@@H](Cc4ccc(Cl)cc4)C(=O)N[C@@H](CO)C(N)=O)(C3)NC(=O)[C@H](CC(C)C)NC(=O)[C@H](Cc3ccccc3)NC(=O)[C@H](C)NC(=O)[C@H](C)NC(=O)[C@H](Cc3cccc(C(=O)O)c3)NC(=O)[C@H](CC(=O)O)NC1=O)NC(=O)[C@H](CC(C)(C)C)NC(=O)[C@H](CC(=O)O)NC2=O (stereo partly drawn)
output: 11.7 µM

input: Can you share its IC50? I mean this compound: CC(=O)N1CCC[C@]12CC=CCCCC1(CCCC=CCCCOC(=O)N3CC[C@@](C(=O)N[C@@H](Cc4ccsc4)C(=O)N[C@@H](Cc4cccc5ccccc45)C(=O)N[C@@H](CCC(N)=O)C(N)=O)(C3)NC(=O)[C@H]([C@@H](C)O)NC(=O)[C@H](Cc3ccccc3)NC(=O)[C@H](C)NC(=O)[C@H](C)NC(=O)[C@H](CC(=O)O)NC(=O)[C@H](CC(=O)O)NC1=O)NC(=O)[C@H](CC(C)(C)C)NC(=O)[C@H](CC(=O)O)NC2=O (stereo partly drawn)
output: 43.3 µM

input: What does the record list as IC50 for CC(=O)N1CCC[C@]12CC=CCCCC1(CCCC=CCCCOC(=O)N3CC[C@@](C(=O)N[C@@H](Cc4ccccc4Cl)C(=O)N[C@@H](Cc4csc5ccccc45)C(=O)N[C@@H](CCC(N)=O)C(N)=O)(C3)NC(=O)[C@H](CC(N)=O)NC(=O)[C@H](Cc3ccccc3)NC(=O)[C@H](C)NC(=O)[C@H](C)NC(=O)[C@H](CC(=O)O)NC(=O)[C@H](CC(=O)O)NC1=O)NC(=O)[C@H](Cc1ccccc1)NC(=O)[C@H](CC(=O)O)NC2=O (stereo partly drawn) ?
output: > 20 µM

input: Fill in: IC50 of CC(=O)N1CCC[C@]12CC=CCCCC1(CCCC=CCCCOC(=O)N3CC[C@@](C(=O)N[C@@H](CC(=O)O)C(=O)N[C@@H](Cc4csc5ccccc45)C(=O)N[C@@H](CCC(N)=O)C(N)=O)(C3)NC(=O)[C@H](CC(N)=O)NC(=O)[C@H](Cc3ccccc3)NC(=O)[C@H](C)NC(=O)[C@H](C)NC(=O)[C@H](CN(CC(=O)O)CC(F)(F)F)NC(=O)[C@H](Cc3ccsc3)NC1=O)NC(=O)[C@H](CC(C)(C)C)NC(=O)[C@H](CC(=O)O)NC2=O (stereo partly drawn) is ___
output: > 20 µM

input: Quick one: IC50 for CC(=O)N1CCC[C@]12CC=CCCCC1(CCCC=CCCCOC(=O)N3CC[C@@](C(=O)N[C@@H](Cc4ccsc4)C(=O)N[C@@H](Cc4csc5ccccc45)C(=O)N[C@H](CO)[C@@H](C)O)(C3)NC(=O)[C@H](Cc3ccc(C(F)(F)F)cc3)NC(=O)[C@H](Cc3ccccc3)NC(=O)[C@H](C)NC(=O)[C@H](C)NC(=O)[C@H](CC(=O)O)NC(=O)[C@H](CC(=O)O)NC1=O)NC(=O)[C@H](CC(C)(C)C)NC(=O)[C@H](CC(=O)O)NC2=O (stereo partly drawn) ?
output: 10.2 µM

input: # lookup: IC50 of CC(=O)N1CCC[C@]12CC=CCCCC1(CCCC=CCCCOC(=O)N3CC[C@@](C(=O)N[C@@H](Cc4ccccc4Cl)C(=O)N[C@@H](Cc4csc5ccccc45)C(=O)N[C@@H](CO)C(N)=O)(C3)NC(=O)[C@H](CO)NC(=O)[C@H](Cc3ccccc3)NC(=O)[C@H](C)NC(=O)[C@H](C)NC(=O)[C@H](CC(=O)O)NC(=O)[C@H](CC(=O)O)NC1=O)NC(=O)[C@H](Cc1ccccc1)NC(=O)[C@H](CC(=O)O)NC2=O (stereo partly drawn)
output: > 20 µM

More entries:
input: Record request: IC50 value, item CC(=O)N1CCC[C@]12CCCCCCC1(CCCCCCCCCCC[C@@](C)(C(=O)N[C@@H](Cc3ccsc3)C(=O)N[C@@H](Cc3csc4ccccc34)C(=O)N[C@@H](CCC(N)=O)C(N)=O)NC(=O)[C@H](CC(C)C)NC(=O)[C@H](Cc3ccccc3)NC(=O)[C@H](C)NC(=O)[C@H](C)NC(=O)[C@H](CN(CC(=O)O)CC(F)(F)F)NC(=O)[C@H](CC(=O)O)NC1=O)NC(=O)[C@H](CC(C)(C)C)NC(=O)[C@H](CC(=O)O)NC2=O (stereo partly drawn)
output: > 20 µM

input: May I ask what IC50 has been recorded for CC(=O)N1CCC[C@]12CC=CCCCC1(CCCC=CCCCOC(=O)N3CC[C@@](C(=O)N[C@@H](Cc4ccsc4)C(=O)N[C@@H](Cc4csc5ccccc45)C(=O)N[C@@H](CCC(N)=O)C(N)=O)(C3)NC(=O)[C@H](CC(N)=O)NC(=O)[C@H](Cc3ccccc3)NC(=O)[C@H](C)NC(=O)C(C)(C)NC(=O)[C@H]([C@@H](C)O)NC(=O)[C@H](CC(N)=O)NC1=O)NC(=O)[C@H](CC(C)(C)C)NC(=O)[C@H](CC(=O)O)NC2=O (stereo partly drawn) ?
output: > 20 µM

input: # IC50 lookup, item CC(=O)N1CCC[C@]12CC=CCCCCC1(CCCCC=CCCCOC(=O)N3CC[C@@](C(=O)N[C@@H](Cc4ccccc4C(F)(F)F)C(=O)N[C@@H](Cc4csc5ccccc45)C(=O)N[C@@H](C)C(N)=O)(C3)NC(=O)[C@H](CC(C)C)NC(=O)[C@H](Cc3ccccc3)NC(=O)[C@H](C)NC(=O)[C@H](CCC(N)=O)NC(=O)[C@H](Cc3cccc(C(=O)O)c3)NC(=O)[C@H](CC(=O)O)NC1=O)NC(=O)[C@H](CC(C)(C)C)NC(=O)[C@H](CC(=O)O)NC2=O (stereo partly drawn) [I-2517]
output: 30 µM

Just for reference, patent US20240116985A1 is where these values come from.
